molecular target: Hemoglobin HbA (Homo sapiens, UniProt P68871+P69905); assay: Inhibition of non-enzymatic glycation in hemoglobin (unknown origin) by spectrophotometric analysis
Sequence (P69905 whole entry): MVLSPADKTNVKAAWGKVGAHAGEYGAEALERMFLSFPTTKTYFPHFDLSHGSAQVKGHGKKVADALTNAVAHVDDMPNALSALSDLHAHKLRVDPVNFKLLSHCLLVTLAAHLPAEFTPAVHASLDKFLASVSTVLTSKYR
Sequence (P68871 whole entry): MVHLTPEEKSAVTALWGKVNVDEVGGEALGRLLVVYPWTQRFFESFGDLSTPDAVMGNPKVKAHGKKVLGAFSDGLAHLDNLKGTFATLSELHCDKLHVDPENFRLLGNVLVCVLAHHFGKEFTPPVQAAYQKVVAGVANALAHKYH
pIC50: −log10 of the molar value.
Recorded pIC50 values for a group of molecules are listed next.
Measurement Type: pIC50

Structure String	Value
CCn1nc(Cn2nnc(-c3ccccn3)n2)cc1C	2.60
O=C(O)c1cc(O)c(O)c(O)c1	3.00
Cc1cc(Cn2nnc(Cc3ccccc3)n2)n[nH]1	2.97
CCn1nc(Cn2nnnc2-c2ccccn2)cc1C	3.65
CCn1nc(Cn2nnc(Cc3ccccc3)n2)cc1C	2.71
CCn1nc(Cn2nnnc2Cc2ccccc2)cc1C	2.92
Cc1cc(Cn2nnnc2Cc2ccccc2)n[nH]1	2.99
Cc1cc(Cn2nnnc2-c2ccccn2)n[nH]1	3.45
Cc1cc(Cn2nnc(-c3ccccn3)n2)n[nH]1	2.71

====

target: Alpha amylase (Homo sapiens); test: Inhibition of alpha-amylase (unknown origin) assessed as reduction in conversion of starch to glucose preincubated for 10 mins followed by substrate addition and measured after 20 mins by DNSA reagent based spectrophotometric analysis
Sequence (P0DUB6 whole entry): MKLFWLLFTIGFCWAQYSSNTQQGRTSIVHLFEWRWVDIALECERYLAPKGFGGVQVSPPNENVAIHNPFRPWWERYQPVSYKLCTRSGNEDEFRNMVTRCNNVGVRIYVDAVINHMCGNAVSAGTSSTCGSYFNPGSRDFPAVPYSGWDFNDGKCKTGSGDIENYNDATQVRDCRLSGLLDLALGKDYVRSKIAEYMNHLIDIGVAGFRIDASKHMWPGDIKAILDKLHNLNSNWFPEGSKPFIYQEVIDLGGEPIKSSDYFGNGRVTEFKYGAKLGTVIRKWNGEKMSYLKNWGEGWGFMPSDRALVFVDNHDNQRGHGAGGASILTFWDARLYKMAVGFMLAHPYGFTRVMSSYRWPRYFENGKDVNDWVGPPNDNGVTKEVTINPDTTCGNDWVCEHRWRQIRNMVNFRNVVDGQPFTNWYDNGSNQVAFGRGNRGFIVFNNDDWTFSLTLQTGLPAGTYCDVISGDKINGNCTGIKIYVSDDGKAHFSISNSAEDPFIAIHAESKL

Structure String	IC50
CCn1nc(Cn2nnnc2-c2ccccn2)cc1C	1.13 10^-4mg/ml
CCn1nc(Cn2nnnc2Cc2ccccc2)cc1C	0.023 mg/mL
Cc1cc(Cn2nnnc2-c2ccccn2)n[nH]1	4.82 10^-3mg/ml
